System: A549 human lung cancer cells
experimentNotes: In vitro anti-proliferative effect, CCK-8 method, A549
Format: cell-based
quantityKind: pIC50
Remember the convention: pIC50 equals -log10 of concentration in molar.

If you can, please state the reported pIC50 value of Nc1ccccc1NC(=O)c1ccc(CNC(=O)OCc2cccnc2)cc1 [MS-275, reference compound] . 5.64

---

assayTarget: HDAC1 (Homo sapiens (Human), UniProt Q13547)
Sequence (Q13547 whole entry): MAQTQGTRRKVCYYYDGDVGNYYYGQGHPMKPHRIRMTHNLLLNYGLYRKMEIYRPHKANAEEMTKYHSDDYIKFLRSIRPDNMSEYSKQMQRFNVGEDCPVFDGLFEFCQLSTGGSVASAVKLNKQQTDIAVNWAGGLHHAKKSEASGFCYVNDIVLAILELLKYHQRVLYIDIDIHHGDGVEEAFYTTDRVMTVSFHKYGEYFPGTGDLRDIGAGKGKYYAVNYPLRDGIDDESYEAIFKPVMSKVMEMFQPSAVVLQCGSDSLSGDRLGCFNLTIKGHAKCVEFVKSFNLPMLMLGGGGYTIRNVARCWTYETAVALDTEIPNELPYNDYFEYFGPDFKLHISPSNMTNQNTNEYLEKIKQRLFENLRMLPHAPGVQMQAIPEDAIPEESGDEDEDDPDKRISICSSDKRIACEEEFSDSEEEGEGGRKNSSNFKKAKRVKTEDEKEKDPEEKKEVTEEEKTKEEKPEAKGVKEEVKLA
experimentNotes: In vitro inhibition of subtype HDAC1 (HDAC1 Inhibitor Drug Screening Kit, Biovision)
Format: biochemical
conditionSet: 1 μM; read-out: % Inhibition towards HDAC1
Outcome: 1 for inhibition at 1 µM of at least 50%; 0 for anything lower.

> print(dat)
                          compoundstructure  answerlabel
1  COc1cc2ncnc(Nc3ccc(C(=O)Nc4cc(-c5ccco5)ccc4N)cc3)c2cc1OC            0
2  COC(=O)Cc1ccc2ncnc(Nc3ccc(C(=O)Nc4ccccc4N)cc3)c2c1            0
3  COc1cccc2c(Nc3ccc(C(=O)Nc4cc(F)ccc4N)cc3)ncnc12            0

Hello, I need to know if COc1ccc2ncnc(Nc3ccc(C(=O)Nc4cc(F)ccc4N)cc3)c2c1 has measured inhibition at 1 µM not below 50%. Thanks! 0

Dear colleague, could you confirm whether COc1cc2ncnc(Nc3ccc(C(=O)Nc4cc(F)ccc4N)cc3)c2cc1OCCCN1CCOCC1 has inhibition at 1 µM at or above 50%? 1

Hi, just wondering whether Nc1cnccc1NC(=O)c1ccc(CNc2ncnc3ccccc23)cc1 shows inhibition at 1 µM of 50% or higher. 0

# bool: inhibition at 1 µM of Nc1ccccc1NC(=O)c1ccc(Nc2ncnc3ccc(F)cc23)cc1 >= 50% 0

Threshold query (inhibition at 1 µM >= 50%) on CC(=O)Nc1ccc2ncnc(Nc3ccc(C(=O)Nc4ccccc4N)cc3)c2c1 1

# check: inhibition at 1 µM of Nc1ccccc1NC(=O)c1ccc(Nc2ncnc3cc(F)ccc23)cc1 is greater than or equal to 50% 1

Item COCCOc1cc2ncnc(Nc3ccc(C(=O)Nc4ccccc4N)cc3)c2cc1OCCOC with inhibition at 1 µM of 50% or above? 1

Has COc1cc2ncnc(Nc3ccc(C(=O)Nc4cc(-c5cccs5)ccc4N)cc3)c2cc1OC a recorded inhibition at 1 µM greater than or equal to 50%? 0

Quick check: does COc1cccc2c(Nc3ccc(C(=O)Nc4ccccc4N)cc3)ncnc12 have inhibition at 1 µM greater than or equal to 50%? 0

Does the compound Nc1ccccc1NC(=O)c1ccc(Nc2ncnc3ccc([N+](=O)[O-])cc23)cc1 have recorded inhibition at 1 µM that is 50% or more? 0

Assess whether reported inhibition at 1 µM for COCCOc1cc2ncnc(Nc3ccc(C(=O)Nc4ccncc4N)cc3)c2cc1OCCOC sits at 50% or higher. 1

Evaluate Nc1ccccc1NC(=O)c1ccc(CNc2ncnc3ccccc23)cc1 : inhibition at 1 µM at minimum 50%? 1

---

# key: entry, value: inhibition at 10 µM
System: A549 human lung cancer cells
experimentNotes: In vitro anti-proliferative effect, CCK-8 method, A549
Format: cell-based
conditionSet: Homo sapiens, A549; 10 μM
Report as a plain number; the unit % is understood.

Sample records with inhibition at 10 µM:
> print(dat)
                          compoundstructure  unitstring  numericvalue
1  COCCOc1cc2ncnc(Nc3ccc(C(=O)Nc4ccccc4N)cc3)c2cc1OCCOC           %           4.7
2  CC(=O)Nc1ccc2ncnc(NCc3ccc(C(=O)Nc4cc(-c5ccco5)ccc4N)cc3)c2c1           %           3.9

# query: inhibition at 10 µM | item CS(=O)(=O)CCNCc1ccc(-c2ccc3ncnc(Nc4ccc(C(=O)Nc5ccccc5N)cc4)c3c2)o1 | system: A549 human lung cancer cells 6.3

What is its inhibition at 10 µM for A549 human lung cancer cells? Entry: CS(=O)(=O)CCNCc1ccc(-c2ccc3ncnc(Nc4ccc(C(=O)Nc5cc(F)ccc5N)cc4)c3c2)o1 0

API: value(readout=inhibition at 10 µM, system=A549 human lung cancer cells) for record CC(=O)Nc1ccc2ncnc(Nc3ccc(C(=O)Nc4ccccc4N)cc3)c2c1 17.1

GET /values?readout=inhibition at 10 µM&system=A549 human lung cancer cells&item= Nc1cnccc1NC(=O)c1ccc(Nc2ncnc3ccccc23)cc1 65.6

I'm curious: which inhibition at 10 µM was measured for COc1cc2ncnc(Nc3ccc(C(=O)Nc4cc(-c5cccs5)ccc4N)cc3)c2cc1OC tested on A549 human lung cancer cells? -7.4
